Listing of entries alongside the reported T/C.
System: B6C3F1 mice, Lewis lung carcinoma iv, survival T/C
Test: NCI In Vivo Anticancer Drug Screen. Data for tumor model Lewis Lung Carcinoma (intravenous) in B6C3F1 mice
Details: endpoint: median survival time; dose: 100.0 mg/kg/injection; schedule: Q01DX009 (ip); vehicle: water; higher = longer survival
Toxic doses and inconclusive results are not listed.
Metric Name: T/C

[
  {
    "Molecule": "CC(=O)NC(C=O)OCC=O (stereo not drawn)",
    "Experimental Value": "91 % of control"
  },
  {
    "Molecule": "O=C(O)C1CC(c2ccccc2)=NN1c1ccccc1 (stereo not drawn)",
    "Experimental Value": "112 % of control"
  },
  {
    "Molecule": "O=C1CN(CCN2CC(=O)N(CN3CCOCC3)C(=O)C2)CC(=O)N1CN1CCOCC1",
    "Experimental Value": "100 % of control"
  },
  {
    "Molecule": "O=C(NO)c1cc(O)c(O)c(O)c1",
    "Experimental Value": "100 % of control"
  },
  {
    "Molecule": "C[C@]12C=CC(=O)C=C1CC[C@@H]1[C@@H]2C(=O)C[C@@]2(C)[C@H]1CC[C@]2(O)C(=O)CO",
    "Experimental Value": "98 % of control"
  },
  {
    "Molecule": "NC(=O)c1c[se]c(C2OC(CO)C(O)C2O)n1 (stereo not drawn)",
    "Experimental Value": "120 % of control"
  },
  {
    "Molecule": "OC1OC2COC(c3ccccc3)OC2C(O)C1O (stereo not drawn)",
    "Experimental Value": "98 % of control"
  },
  {
    "Molecule": "[Na+]",
    "Experimental Value": "99 % of control"
  },
  {
    "Molecule": "CC(C)[C@](O)(C(=O)OCC1=CCN2CC[C@@H](O)[C@@H]12)[C@H](C)O",
    "Experimental Value": "100 % of control"
  },
  {
    "Molecule": "BrCCC1(CCBr)CCCCC1",
    "Experimental Value": "103 % of control"
  },
  {
    "Molecule": "Cc1noc(N)c1N",
    "Experimental Value": "92 % of control"
  },
  {
    "Molecule": "Nc1cc(Cl)c2[nH]cnc2n1",
    "Experimental Value": "109 % of control"
  },
  {
    "Molecule": "N#CC(OC1OC(COC2OC(CO)C(O)C(O)C2O)C(O)C(O)C1O)c1ccccc1 (stereo not drawn)",
    "Experimental Value": "98 % of control"
  }
]
